Property: Kd; scope: individual binders
molecular target: T1, V domain of human CD33 (human, UniProt P20138 18-139, limits assumed); experiment: SPR, Fab captured, 37C;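 also: biacore 8K surface plasmon resonance with Fabs held on an amine-coupled anti-Fab antibody surface, soluble monomeric CD33 domain injected as analyte, double-referenced 1:1 binding fit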
T1 construct: recombinant, fully glycosylated V domain; also called Human CD33 V domain
Lab book: enter the figure in nM, no units written.

Consider the reported Kd for these binders:
Query block: Consider the binder shown here: ADI-11839 Fab (Fab, V domains shown, Fab fragment; also called Ab28) VH: QVQLVQSGAEVKKPGASVKVSCKASGYTFSNYYMHWVRQAPGQGLEWMGWINPFSGGTRYAQKFQGRVTMTRDTSTSTVYMELSSLRSEDTAVYYCARDVGSSAYYYMDVWGKGTTVTVSS VL: DIQMTQSPSSVSASVGDRVTITCEASKGISSWLAWYQQKPGKAPKLLIYAASDLQSGVPSRFSGSGSGTDFTLTISSLQPEDFATYYCQQAFLFPPTFGGGTKVEIK What is its recorded Kd?
Result block: 44.6

Query block: Consider the binder shown here: ADI-10158 Fab (Fab, V domains shown, Fab fragment; also called Ab14) VH: QVQLQQWGAGLLKPSETLSLTCAVYGGSFSGYYWSWIRQPPGKGLEWIGEIDHSGSTNYNPSLKSRVTISVDTSKNQFSLKLSSVTAADTAVYYCARQGIHGLRYFDLWGRGTLVTVSS VL: EIVMTQSPATLSLSPGERATLSCRASQSVSSYLAWYQQKPGQAPRLLIYDASNRATGIPARFSGSGSGTDFTLTISSLEPEDFAVYYCQQDHNFPYTFGGGTKVEIK What is its recorded Kd?
Result block: 127

Let us examine a further case.
Query block: Consider the binder shown here: ADI-11835 Fab (Fab, V domains shown, Fab fragment; also called Ab10; I35) VH: QLQLQESGPGLVKPSETLSLTCTVSGGSISSTDYYWGWIRQPPGKGLEWIGSIGYSGTYYNPSLKSRVTISVDTSKNQFSLKLSSVTAADTAVYYCARETAHDVHGMDVWGQGTTVTVSS VL: EIVLTQSPATLSLSPGERATLSCRASHSVYSYLAWYQQKPGQAPRLLIYDASNRATGIPARFSGSGSGTDFTLTISSLEPEDFAVYYCQQYDNLPTFGGGTKVEIK What is its recorded Kd?
Result block: 1.14
